Test system: A431 (human epidermal cancer cells, EGFR wild type)
Experiment: Tumor cell proliferation and growth inhibition analysis (Cell Titer-Glo, 72 h), A431
Format: cell-based
Conditions: A-431, 72 h exposure
quantity.measured: GI50

{"structure.as.smiles": "C=CC(=O)Nc1cc(Nc2nccc(-c3noc4ccccc34)n2)c(OC(F)F)cc1N(C)CCN(C)C", "quantity.measured": "GI50", "test.value": "0.0891 µM"}
{"structure.as.smiles": "C=CC(=O)Nc1cc(Nc2nccc(-c3noc4ccccc34)n2)c(OC)cc1N1CCC[C@H]1CN(C)C", "quantity.measured": "GI50", "test.value": "~63.4 µM"}

Now look at this one.
Data request, read-out GI50, for `C=CC(=O)Nc1cc(Nc2nccc(-c3nn(C)c4ccsc34)n2)c(OC(F)F)cc1N1CC2(CCCN2C)C1`
> 1 µM

###

Field: GI50. Provide a value for each of the molecules that follow.
Test system: A431 (human epidermal cancer cells, EGFR wild type)
Experiment: Tumor cell proliferation and growth inhibition analysis (Cell Titer-Glo, 72 h), A431
Type: cell-based
Settings: A-431, 72 h exposure

See these solved cases before continuing.
{"molecule": "C=CC(=O)Nc1cc(Nc2nccc(-c3cn(C)c4cccnc34)n2)c(OC(F)F)cc1N1CC(N(C)C)C1 [Example 20]", "GI50": "> 1000 nM"}
{"molecule": "C=CC(=O)Nc1cc(Nc2nccc(-c3noc4ccccc34)n2)c(OC(F)F)cc1N1CCC[C@H]1CN(C)C [Example 10]", "GI50": "> 1000 nM"}
{"molecule": "C=CC(=O)Nc1cc(Nc2cc(-c3nn(C)c4ccsc34)ccn2)c(OC)cc1N(C)CCN(C)C [Example 41]", "GI50": "~800 nM"}

Now look at this one.
Data request, read-out GI50, for C=CC(=O)Nc1cc(Nc2nccc(-c3noc4ccccc34)n2)c(OC(F)F)cc1N1CCC(N(C)C)CC1 [Example 9]
> 1000 nM
